system: uninfected MT2 cells; experiment: Compound cytotoxicity, XTT-based colorimetric assay; format: cell-based; settings: Table 1, day 4, XTT

- compound: "Cc1nc2nc(C(Cc3cc(F)cc(F)c3)NC(=O)Cn3nc(C(F)F)c4c3CCC4)c(-c3ccc(Cl)c4c(NS(C)(=O)=O)nn(C)c34)cc2s1 (single isomer, unassigned) [Example 2.4]"
  targetUnderTest: "uninfected MT2 cells"
  CC50: "> 10 µM"
- compound: "O=C(Cn1nc(C(F)F)c2c1C(F)(F)[C@@H]1C[C@H]21)N[C@H](Cc1cc(F)cc(F)c1)c1nc2cn[nH]c2cc1-c1ccc2scnc2c1 (single isomer, unassigned) [Example 3.1]"
  targetUnderTest: "uninfected MT2 cells"
  CC50: "42.1 µM"
- compound: "Cn1nc(NS(C)(=O)=O)c2c(Cl)ccc(-c3cc4ccccc4nc3C(Cc3cc(F)cc(F)c3)NC(=O)Cn3nc(C(F)F)c4c3C(F)(F)[C@@H]3C[C@H]43)c21 (single isomer, unassigned) [Example 8.2]"
  targetUnderTest: "uninfected MT2 cells"
  CC50: "> 10 µM"
- compound: "O=C(Cn1nc(C(F)F)c2c1C(F)(F)[C@@H]1C[C@H]21)NC(Cc1cc(F)cc(F)c1)c1nc2ncsc2cc1-c1ccc2scnc2c1 (single isomer, unassigned) [Example 1.2]"
  targetUnderTest: "uninfected MT2 cells"
  CC50: "> 33.3 µM"
- compound: "Cn1nc(NS(C)(=O)=O)c2c(Cl)ccc(-c3c(C(Cc4cc(F)cc(F)c4)NC(=O)Cn4nc(C(F)F)c5c4C(F)(F)[C@@H]4C[C@H]54)ncc4[nH]cnc34)c21 (single isomer, unassigned) [Example 7.5]"
  targetUnderTest: "uninfected MT2 cells"
  CC50: "> 10 µM"

###

system: uninfected MT2 cells; assay: Compound cytotoxicity, XTT-based colorimetric assay; assay type: cell-based; conditions: Table 1a, day 4, XTT
Below: a set of entries, each annotated with reported CC50.
measurementKind: CC50

- compound: "CS(=O)(=O)Nc1nn(CC(F)F)c2c(-c3cc4[nH]ncc4nc3[C@H](Cc3cc(F)cc(F)c3)NC(=O)Cn3nc(C(F)F)c4c3C(F)(F)[C@@H]3C[C@H]43)ccc(Cl)c12 (single isomer, unassigned) [Example 93]"
  measuredValue: "> 10 µM"
- compound: "Cn1nc(NS(C)(=O)=O)c2c(Cl)ccc(-n3c([C@H](Cc4cc(F)cc(F)c4)NC(=O)Cn4nc(C(F)F)c5c4C(F)(F)[C@@H]4C[C@H]54)nc4cc(CS(C)(=O)=O)ccc4c3=O)c21 (mixture of isomers) [Example 202]"
  measuredValue: "> 1 µM"
- compound: "Cn1nc(NS(C)(=O)=O)c2c(Cl)ccc(-n3c([C@H](Cc4cc(F)cc(F)c4)NC(=O)Cn4ccc(C(F)(F)F)n4)nc4ccc(OC(F)(F)F)cc4c3=O)c21 (single isomer, unassigned) [Example 144]"
  measuredValue: "> 1 µM"
- compound: "Cn1nc(NS(C)(=O)=O)c2c(Cl)ccc(-n3c([C@H](Cc4cc(F)cc(F)c4)NC(=O)Cn4nc(C(F)F)c5c4C(F)(F)[C@@H]4C[C@H]54)nc4cc(C(C)(C)C)ccc4c3=O)c21 (mixture of isomers) [Example 216]"
  measuredValue: "> 1 µM"

###

experiment: Compound cytotoxicity, XTT-based colorimetric assay; format: cell-based; settings: human, uninfected MT2 cells, Table 1a, day 4, XTT

- compound: "CS(=O)(=O)Nc1nn(CC(F)F)c2c(-c3cc4[nH]ncc4nc3[C@H](Cc3cc(F)cc(F)c3)NC(=O)Cn3nc(C(F)F)c4c3C(F)(F)[C@@H]3C[C@H]43)ccc(Cl)c12 (single isomer, unassigned)"
  CC50 at 4 days: "> 10 µM"
- compound: "Cn1nc(NS(C)(=O)=O)c2c(Cl)ccc(-c3cc4sc(N)nc4nc3C(Cc3cc(F)cc(F)c3)NC(=O)Cn3nc(C(F)F)c4c3C(F)(F)[C@@H]3C[C@H]43)c21 (mixture of isomers)"
  CC50 at 4 days: "> 10 µM"
- compound: "CN(c1nn(C)c2c(-c3cc4c(ccn4C)nc3[C@H](Cc3cc(F)cc(F)c3)NC(=O)Cn3nc(C(F)F)c4c3C(F)(F)[C@@H]3C[C@H]43)ccc(Cl)c12)S(C)(=O)=O (single isomer, unassigned)"
  CC50 at 4 days: "> 10 µM"
- compound: "COc1c(F)cc2c(=O)n(-c3ccc(Cl)c4c(NS(C)(=O)=O)nn(C)c34)c(C(Cc3cc(F)cc(F)c3)NC(=O)Cn3nc(C(F)F)c4c3C(F)(F)[C@@H]3C[C@H]43)nc2c1F (stereo partly shown)"
  CC50 at 4 days: "> 1 µM"
